Each recorded value in this set is attributed to patent US20220305129A1.

Test: In vitro release kinetics: cleavage rate of the reversible bond in aqueous buffer
Format: physicochemical
Details: aqueous buffer (sodium phosphate with acetonitrile), pH 7.4, 37° C., 48 mM sodium phosphate, 20% acetonitrile, disappearance of conjugate by LCMS (UV), read-out: t1/2 (pH 7.4) (converted)
half-life values, listed per item
Attribute measured: half-life

Compound: CCOC(c1ccccc1)n1ncc2ccccc21 (stereo not drawn)
Attribute measured: half-life
Recorded measurement: 137 h
//
Compound: CCOC(c1ccc(CC(=O)O)cc1)n1cnc2ccccc21 (stereo not drawn)
Attribute measured: half-life
Recorded measurement: 10 h
//
Compound: CCOC(c1ccccc1)n1cnc2ccccc21 (stereo not drawn)
Attribute measured: half-life
Recorded measurement: 192 h
